Entry source: ChEMBL document CHEMBL5291721

# Target Or Test System: Corticotropin-releasing factor receptor 2 (Homo sapiens); also: assay procedure not described here
# Sequence (Q13324 whole entry): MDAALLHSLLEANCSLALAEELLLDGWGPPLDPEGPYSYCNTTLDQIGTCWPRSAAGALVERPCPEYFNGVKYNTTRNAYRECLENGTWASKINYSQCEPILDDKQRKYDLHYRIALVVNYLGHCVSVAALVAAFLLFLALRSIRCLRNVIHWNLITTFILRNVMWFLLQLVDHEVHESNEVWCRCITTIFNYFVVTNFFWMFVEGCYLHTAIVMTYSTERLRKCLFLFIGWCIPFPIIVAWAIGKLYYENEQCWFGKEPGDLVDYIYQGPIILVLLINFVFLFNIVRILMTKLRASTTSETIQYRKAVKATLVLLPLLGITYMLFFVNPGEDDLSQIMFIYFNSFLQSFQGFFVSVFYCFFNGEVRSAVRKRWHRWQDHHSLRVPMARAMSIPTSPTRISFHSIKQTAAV
Quantity Name: AC50

IN: Retrieve AC50 measured for CN(C)CCC(c1ccc(Cl)cc1)c1ccccn1 (stereo not drawn) [CHLORPHENIRAMINE] and print it.
OUT: > 30 µM

IN: Retrieve AC50 measured for CCOC(=O)[C@H](CCc1ccccc1)N[C@@H](C)C(=O)N1[C@H](C(=O)O)C[C@@H]2CCC[C@@H]21 and print it.
OUT: > 30 µM

IN: Retrieve AC50 measured for CN(C)CCC=C1c2ccccc2C=Cc2ccccc21 [CYCLOBENZAPRINE] and print it.
OUT: > 30 µM

* * *

Please provide measured AC50 for the entries that follow.

IN: Consider the molecule COc1cccc(C2(O)CCCCC2CN(C)C)c1 (configuration not stated) tested on UniProtKB P41145; state its AC50.
Sequence (P41145 whole entry): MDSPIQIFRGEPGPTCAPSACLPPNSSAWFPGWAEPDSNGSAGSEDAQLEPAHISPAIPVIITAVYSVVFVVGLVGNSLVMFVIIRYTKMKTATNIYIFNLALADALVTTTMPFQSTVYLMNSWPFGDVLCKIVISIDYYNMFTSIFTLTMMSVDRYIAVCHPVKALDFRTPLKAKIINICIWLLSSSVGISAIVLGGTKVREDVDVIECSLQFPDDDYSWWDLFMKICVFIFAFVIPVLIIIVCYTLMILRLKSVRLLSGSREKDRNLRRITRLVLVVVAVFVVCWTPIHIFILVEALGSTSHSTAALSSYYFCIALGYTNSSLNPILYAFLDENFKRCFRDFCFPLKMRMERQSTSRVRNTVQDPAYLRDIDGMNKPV
OUT: > 10 µM

IN: Consider the molecule CCCN1C[C@H](CSC)C[C@@H]2c3cccc4[nH]cc(c34)C[C@H]21 [PERGOLIDE] tested on UniProtKB P41145; state its AC50.
OUT: 12.9 µM

IN: Consider the molecule CC(=O)OCC(=O)[C@@]12N=C(C)O[C@@H]1C[C@H]1[C@@H]3CCC4=CC(=O)C=C[C@]4(C)[C@H]3[C@@H](O)C[C@@]12C tested on UniProtKB P41145; state its AC50.
OUT: > 30 µM

IN: Consider the molecule Cc1ccc(-n2nccn2)c(C(=O)N2CCN(c3nc4cc(Cl)ccc4o3)CC[C@H]2C)c1 tested on UniProtKB P41145; state its AC50.
OUT: > 30 µM

IN: Consider the molecule C#C[C@]1(O)CC[C@H]2[C@@H]3CCC4=Cc5oncc5C[C@]4(C)[C@H]3CC[C@@]21C tested on UniProtKB P41145; state its AC50.
OUT: > 10 µM

IN: Consider the molecule C#C[C@]1(O)CC[C@H]2[C@@H]3[C@H](C)CC4=C(CCC(=O)C4)[C@H]3CC[C@@]21C tested on UniProtKB P41145; state its AC50.
OUT: 19 µM

IN: Consider the molecule O=C(O)[C@H](CC(=O)N1C[C@H]2CCCC[C@H]2C1)Cc1ccccc1 [MITIGLINIDE] tested on UniProtKB P41145; state its AC50.
OUT: > 10 µM

IN: Consider the molecule Cn1nnc2c(C(N)=O)ncn2c1=O [TEMOZOLOMIDE] tested on UniProtKB P41145; state its AC50.
OUT: > 10 µM

IN: Consider the molecule CCc1c(Cl)c(O)c(Cl)c(O)c1C(=O)O[C@H]1[C@H](O)[C@H](OC)[C@H](OC/C2=C\C=C\C[C@H](O)/C(C)=C/[C@H](CC)[C@@H](O[C@@H]3OC(C)(C)[C@@H](OC(=O)C(C)C)[C@H](O)[C@@H]3O)/C(C)=C/C(C)=C/C[C@@H]([C@@H](C)O)OC2=O)O[C@@H]1C tested on UniProtKB P41145; state its AC50.
OUT: > 10 µM

IN: Consider the molecule CNS(=O)(=O)Cc1ccc2[nH]cc(CCN(C)C)c2c1 tested on UniProtKB P41145; state its AC50.
OUT: > 30 µM

IN: Consider the molecule Nc1nc(/C(=C/CC(=O)O)C(=O)N[C@@H]2C(=O)N3C(C(=O)O)=CCS[C@H]23)cs1 tested on UniProtKB P41145; state its AC50.
OUT: > 30 µM

IN: Consider the molecule O=C(Cc1ccc(-c2ccccc2)cc1)Nc1ccccn1 [DIFENPIRAMIDE] tested on UniProtKB P41145; state its AC50.
OUT: > 30 µM

IN: Consider the molecule CC(C[N+](C)(C)C)OC(N)=O (configuration not stated) tested on UniProtKB P41145; state its AC50.
OUT: > 10 µM

IN: Consider the molecule OC(CNCC(O)C1CCc2cc(F)ccc2O1)C1CCc2cc(F)ccc2O1 (configuration not stated) tested on UniProtKB P41145; state its AC50.
OUT: 10 µM

IN: Consider the molecule CCCCN1C[C@H](O)[C@@H](O)[C@H](O)[C@H]1CO tested on UniProtKB P41145; state its AC50.
OUT: > 30 µM

IN: Consider the molecule C[C@]1(O)CC[C@H]2[C@@H]3CCC4=CC(=O)CC[C@]4(C)[C@@]3(F)[C@@H](O)C[C@@]21C tested on UniProtKB P41145; state its AC50.
OUT: > 10 µM

IN: Consider the molecule CC(C(=O)O)c1ccc(N2Cc3ccccc3C2=O)cc1 (configuration not stated) tested on UniProtKB P41145; state its AC50.
OUT: > 30 µM

IN: Consider the molecule NCC(CC(=O)O)c1ccc(Cl)cc1 (configuration not stated) tested on UniProtKB P41145; state its AC50.
OUT: > 10 µM

IN: Consider the molecule CN(C)CCc1c[nH]c2ccc(C[C@H]3COC(=O)N3)cc12 tested on UniProtKB P41145; state its AC50.
OUT: > 30 µM

IN: Consider the molecule Cc1cccc(Nc2ccccc2C(=O)O)c1C tested on UniProtKB P41145; state its AC50.
OUT: > 10 µM

IN: Consider the molecule COc1ccc(CCNCC(O)COc2cccc(C)c2)cc1OC (configuration not stated) tested on UniProtKB P41145; state its AC50.
OUT: > 10 µM

IN: Consider the molecule CN1[C@@H]2CC[C@H]1C[C@@H](OC(c1ccccc1)c1ccccc1)C2 tested on UniProtKB P41145; state its AC50.
OUT: 0.993 µM

IN: Consider the molecule O=C(O)C1=C(CSc2nnnn2CS(=O)(=O)O)CS[C@@H]2[C@H](NC(=O)[C@H](O)c3ccccc3)C(=O)N12 tested on UniProtKB P41145; state its AC50.
OUT: > 30 µM

IN: Consider the molecule CC(C)Cn1cnc2c(N)nc3ccccc3c21 tested on UniProtKB P41145; state its AC50.
OUT: > 10 µM

IN: Consider the molecule CCC1(CC)C(=O)NCC(C)C1=O (configuration not stated) tested on UniProtKB P41145; state its AC50.
OUT: > 30 µM

IN: Consider the molecule CC(CC1c2ccccc2CCc2ccccc21)CN(C)C (configuration not stated) tested on UniProtKB P41145; state its AC50.
OUT: > 30 µM

IN: Consider the molecule CN(C)/N=N/c1[nH]cnc1C(N)=O tested on UniProtKB P41145; state its AC50.
OUT: > 10 µM

IN: Consider the molecule Cc1cn([C@H]2C[C@H](N=[N+]=[N-])[C@@H](CO)O2)c(=O)[nH]c1=O tested on UniProtKB P41145; state its AC50.
OUT: > 10 µM

IN: Consider the molecule Cc1nc([N+](=O)[O-])cn1-c1ccc([N+](=O)[O-])cc1 tested on UniProtKB P41145; state its AC50.
OUT: > 30 µM

IN: Consider the molecule CCCCCCOc1ccccc1C(N)=O [EXALAMIDE] tested on UniProtKB P41145; state its AC50.
OUT: 9.3 µM

IN: Consider the molecule CN1C(C(=O)Nc2ccccn2)=C(O)c2sc(Cl)cc2S1(=O)=O tested on UniProtKB P41145; state its AC50.
OUT: > 10 µM

IN: Consider the molecule CC[C@@H]1C(=O)OC[C@@H]1Cc1cncn1C tested on UniProtKB P41145; state its AC50.
OUT: > 10 µM

IN: Consider the molecule Nc1ccn([C@H]2CC[C@@H](CO)O2)c(=O)n1 tested on UniProtKB P41145; state its AC50.
OUT: > 10 µM

IN: Consider the molecule COc1ccccc1OCCNCC(O)c1ccc(C)c(S(N)(=O)=O)c1 (configuration not stated) tested on UniProtKB P41145; state its AC50.
OUT: > 30 µM

IN: Consider the molecule CCOC(=O)[C@H](CCc1ccccc1)N[C@@H](C)C(=O)N1[C@H](C(=O)O)C[C@@H]2CCC[C@@H]21 tested on UniProtKB P41145; state its AC50.
OUT: > 10 µM

IN: Consider the molecule CC(C)(C)NCC(O)COc1cccc2c1CCC(=O)N2 (configuration not stated) tested on UniProtKB P41145; state its AC50.
OUT: 11.6 µM

IN: Consider the molecule COc1ccc(CCN(C)CCCC(C#N)(c2cc(OC)c(OC)c(OC)c2)C(C)C)cc1OC (configuration not stated) tested on UniProtKB P41145; state its AC50.
OUT: 2.5 µM

* * *

Please provide measured AC50 for the entries that follow.

IN: Consider the molecule CCC(C)n1ncn(-c2ccc(N3CCN(c4ccc(OCC5COC(Cn6cncn6)(c6ccc(Cl)cc6Cl)O5)cc4)CC3)cc2)c1=O (stereo not drawn) [ITRACONAZOLE] tested on Motilin receptor (Homo sapiens, UniProt O43193); state its AC50. Also: assay procedure not described here.
Sequence (O43193 whole entry): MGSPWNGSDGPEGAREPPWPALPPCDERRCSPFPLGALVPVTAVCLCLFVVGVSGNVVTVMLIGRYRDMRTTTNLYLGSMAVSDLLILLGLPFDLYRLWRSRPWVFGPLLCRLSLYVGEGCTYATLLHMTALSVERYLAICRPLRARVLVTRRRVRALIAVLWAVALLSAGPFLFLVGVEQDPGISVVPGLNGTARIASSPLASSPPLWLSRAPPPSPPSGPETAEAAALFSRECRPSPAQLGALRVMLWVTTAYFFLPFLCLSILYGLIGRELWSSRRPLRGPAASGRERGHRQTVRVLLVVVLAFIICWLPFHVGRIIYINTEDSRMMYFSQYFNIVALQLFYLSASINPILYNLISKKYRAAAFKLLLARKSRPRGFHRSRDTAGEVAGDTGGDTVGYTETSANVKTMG
OUT: > 30 µM

IN: Consider the molecule O=C(O)[C@H](CC(=O)N1C[C@H]2CCCC[C@H]2C1)Cc1ccccc1 [MITIGLINIDE] tested on Motilin receptor (Homo sapiens, UniProt O43193); state its AC50. Also: assay procedure not described here.
OUT: > 10 µM

IN: Consider the molecule CC(C)(C)NCC(O)COc1cccc2c1CCC(=O)N2 (stereo not drawn) [CARTEOLOL] tested on Motilin receptor (Homo sapiens, UniProt O43193); state its AC50. Also: assay procedure not described here.
OUT: > 10 µM

IN: Consider the molecule Fc1ccc(C(c2ccccc2)(c2ccccc2F)n2ccnc2)cc1 (stereo not drawn) [FLUTRIMAZOLE] tested on Motilin receptor (Homo sapiens, UniProt O43193); state its AC50. Also: assay procedure not described here.
OUT: 27 µM

IN: Consider the molecule CCCC1O[C@@H]2C[C@H]3[C@@H]4CCC5=CC(=O)C=C[C@]5(C)[C@H]4[C@@H](O)C[C@]3(C)[C@]2(C(=O)CO)O1 (stereo partly drawn) [BUDESONIDE] tested on Motilin receptor (Homo sapiens, UniProt O43193); state its AC50. Also: assay procedure not described here.
OUT: > 10 µM

IN: Consider the molecule CN1C(C(=O)Nc2ccccn2)=C(O)c2sc(Cl)cc2S1(=O)=O [LORNOXICAM] tested on Motilin receptor (Homo sapiens, UniProt O43193); state its AC50. Also: assay procedure not described here.
OUT: > 10 µM

IN: Consider the molecule CCOC(=O)[C@H](CCc1ccccc1)N[C@@H](C)C(=O)N1C(=O)N(C)C[C@H]1C(=O)O tested on Motilin receptor (Homo sapiens, UniProt O43193); state its AC50. Also: assay procedure not described here.
OUT: > 30 µM

IN: Consider the molecule COC(=O)C1=C(C)NC(C)=C(C(=O)OC(C)(C)CN(C)CCC(c2ccccc2)c2ccccc2)C1c1cccc([N+](=O)[O-])c1 (stereo not drawn) [LERCANIDIPINE] tested on Motilin receptor (Homo sapiens, UniProt O43193); state its AC50. Also: assay procedure not described here.
OUT: 12.6 µM
